Cited source: ChEMBL document CHEMBL1201862

Hi there, I'd appreciate the recorded GI50 for every entry that follows.
system: SR; assay: NCI tumour cell line growth inhibition, 48 h
Calls of active or inactive are those of the source. No stated cut-off is given here; in the data, active = GI50 up to about 1.1 µM and inactive = higher.

Check out these entries, answers already filled in.
c1cc2c(cc1NC1=NCCO1)CCC2 | > 10 µM (inactive)
CN1OC2OC(=O)OC2[C@H]1[C@H]1O[C@H](c2ccccc2)OC1(C)c1cc(OC(=O)c2ccccc2)ccc1OC(=O)c1ccccc1 (some centres not stated) | > 50 µM (inactive)
CC(=O)OC1COC(N2C(=O)C(=O)c3cc(Br)c([N+](=O)[O-])cc32)C(OC(C)=O)C1OC(C)=O (configuration not stated) | 29.1 µM (inactive)

Dear reader, for each entry below, please note its GI50.
1. COc1cc2c[n+]3ccc4cc(OC)c(OC)cc4c3cc2cc1O
2. NN/C(=N\S(=O)(=O)c1cc(S(=O)(=O)c2ccccc2)cs1)Nc1ccc(Cl)cc1
3. O=C1C2C(C(=O)N1OS(=O)(=O)c1ccccc1)N(Cc1ccccc1)C(=O)N2Cc1ccccc1 (configuration not stated)
4. COc1ccc2c3c(c(=O)n(C)c2c1OC)C=CC(C)(C)O3

Response:
> 100 µM (inactive)
9.71 µM (inactive)
> 100 µM (inactive)
3.46 µM (inactive)

Dear reader, for each entry below, please note its GI50.
1. Cc1ccc(O)c(C(c2cc(C)ccc2O)c2cc([N+](=O)[O-])ccc2O)c1
2. COC(=O)c1c(C)cccc1/C=C1\Cc2ccc(C)c(C)c2C1=O
3. CCOP1(=O)C=C(Sc2ccc([N+](=O)[O-])cc2[N+](=O)[O-])C(C)(C)O1 (configuration not stated)
4. CC(C)(C)OC(=O)NCCCCCCC(=O)Cc1ccccc1
5. CC(CCC(=O)O)(c1cc(Br)c(O)c(Br)c1)c1cc(Br)c(O)c(Br)c1
6. COc1ccc(N2C(=O)C3c4[nH]c5ccc(OCc6ccccc6)cc5c4C4CCC(C(C)(C)C)CC4C3C2=O)cc1 (configuration not stated)
7. COc1ccc(/N=C(/C[S+]([O-])c2ccc(C)cc2)C(F)(F)F)cc1 (configuration not stated)

Response:
8.43 µM (inactive)
8.39 µM (inactive)
3.59 µM (inactive)
> 100 µM (inactive)
39.1 µM (inactive)
> 100 µM (inactive)
> 100 µM (inactive)

Dear reader, for each entry below, please note its GI50.
1. CC(=O)OC(C(=O)NNC(=O)OC(C)(C)C)c1ccccc1 (configuration not stated)
2. OC1CCN(c2c3ccccc3nc3ccccc23)CC1
3. CN(CCO)CCC1COc2ccccc2O1 (configuration not stated)

Response:
1. > 100 µM (inactive)
2. 2.77 µM (inactive)
3. > 10 µM (inactive)

###

Hi there, I'd appreciate the recorded GI50 for every entry that follows.
tested on: OVCAR-3; assay: NCI tumour cell line growth inhibition, 48 h
Calls of active or inactive are those of the source. Cut-off read from the data, not from the text of the source: active = GI50 up to about 1.1 µM and inactive = higher.

CC1(C)CNC(=O)C2(/C=N/C(C)(C)CNC(=O)C3(/C=N/1)CCCO3)CCCO2 (stereo unspecified) | > 10 µM (inactive)

Dear reader, for each entry below, please note its GI50.
1. C[C@H](CSC(=O)c1ccccc1)C(=O)N1c2ccccc2C[C@H]1C(=O)O
2. COC(=O)C1CC(OC(C)=O)C=C2C(=O)CCC21 (stereo unspecified)
3. COc1ccc([I+]c2ccc(OC)cc2)cc1
4. CCOC(=O)NC(=O)c1cn(C2CCCCC2)c(=O)[nH]c1=O

Response:
["> 100 µM (inactive)", "13.9 µM (inactive)", "26.7 µM (inactive)", "> 100 µM (inactive)"]
